- TARGET_UNDER_TEST: NCCa-ATP channel (Rattus norvegicus, UniProt Q09429+Q9ESQ5)
- Construct: endogenous in cells; host or cells: freshly isolated native reactive astrocytes from the hypoxic gliotic capsule
- Sequence (Q09429 whole entry): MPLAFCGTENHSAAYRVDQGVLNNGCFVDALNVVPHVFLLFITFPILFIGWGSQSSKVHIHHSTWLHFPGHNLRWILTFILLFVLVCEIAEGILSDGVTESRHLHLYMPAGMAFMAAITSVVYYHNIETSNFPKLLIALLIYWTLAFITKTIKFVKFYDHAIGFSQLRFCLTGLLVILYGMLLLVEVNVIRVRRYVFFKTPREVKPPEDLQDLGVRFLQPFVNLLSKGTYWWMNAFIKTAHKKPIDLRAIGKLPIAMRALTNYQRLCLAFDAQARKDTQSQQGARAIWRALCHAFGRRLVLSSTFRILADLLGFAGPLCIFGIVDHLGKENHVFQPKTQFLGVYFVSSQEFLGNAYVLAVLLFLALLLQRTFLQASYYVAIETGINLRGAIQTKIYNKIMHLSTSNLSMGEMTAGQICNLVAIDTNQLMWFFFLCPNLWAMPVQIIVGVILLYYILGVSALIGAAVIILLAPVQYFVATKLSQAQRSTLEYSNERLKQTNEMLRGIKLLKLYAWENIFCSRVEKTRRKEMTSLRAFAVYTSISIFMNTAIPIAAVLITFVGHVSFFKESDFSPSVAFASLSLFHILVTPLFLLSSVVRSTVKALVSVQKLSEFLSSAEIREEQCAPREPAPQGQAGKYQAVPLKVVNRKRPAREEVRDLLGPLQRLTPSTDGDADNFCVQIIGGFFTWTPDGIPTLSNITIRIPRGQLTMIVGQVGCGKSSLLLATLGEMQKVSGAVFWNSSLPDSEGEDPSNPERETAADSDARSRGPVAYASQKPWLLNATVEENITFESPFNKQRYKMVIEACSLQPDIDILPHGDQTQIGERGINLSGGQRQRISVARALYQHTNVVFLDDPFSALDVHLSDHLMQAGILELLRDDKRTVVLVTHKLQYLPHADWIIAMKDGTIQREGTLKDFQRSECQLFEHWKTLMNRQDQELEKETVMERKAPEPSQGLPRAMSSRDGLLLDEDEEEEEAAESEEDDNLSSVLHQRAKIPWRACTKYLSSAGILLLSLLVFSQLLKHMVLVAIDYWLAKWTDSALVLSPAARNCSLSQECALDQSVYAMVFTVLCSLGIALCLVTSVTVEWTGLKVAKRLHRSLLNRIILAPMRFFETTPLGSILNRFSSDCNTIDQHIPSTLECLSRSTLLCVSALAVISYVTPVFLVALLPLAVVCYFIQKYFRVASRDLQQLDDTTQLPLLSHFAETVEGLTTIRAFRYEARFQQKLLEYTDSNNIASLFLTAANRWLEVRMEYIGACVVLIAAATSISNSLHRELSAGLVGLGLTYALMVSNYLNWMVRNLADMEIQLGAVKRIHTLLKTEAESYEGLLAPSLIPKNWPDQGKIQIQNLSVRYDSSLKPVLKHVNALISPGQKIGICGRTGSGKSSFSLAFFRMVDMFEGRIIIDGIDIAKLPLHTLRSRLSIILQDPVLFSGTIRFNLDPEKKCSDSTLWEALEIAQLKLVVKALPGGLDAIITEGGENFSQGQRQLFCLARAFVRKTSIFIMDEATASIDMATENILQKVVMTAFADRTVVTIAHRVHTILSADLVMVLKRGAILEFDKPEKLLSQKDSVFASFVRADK
- Sequence (Q9ESQ5 whole entry): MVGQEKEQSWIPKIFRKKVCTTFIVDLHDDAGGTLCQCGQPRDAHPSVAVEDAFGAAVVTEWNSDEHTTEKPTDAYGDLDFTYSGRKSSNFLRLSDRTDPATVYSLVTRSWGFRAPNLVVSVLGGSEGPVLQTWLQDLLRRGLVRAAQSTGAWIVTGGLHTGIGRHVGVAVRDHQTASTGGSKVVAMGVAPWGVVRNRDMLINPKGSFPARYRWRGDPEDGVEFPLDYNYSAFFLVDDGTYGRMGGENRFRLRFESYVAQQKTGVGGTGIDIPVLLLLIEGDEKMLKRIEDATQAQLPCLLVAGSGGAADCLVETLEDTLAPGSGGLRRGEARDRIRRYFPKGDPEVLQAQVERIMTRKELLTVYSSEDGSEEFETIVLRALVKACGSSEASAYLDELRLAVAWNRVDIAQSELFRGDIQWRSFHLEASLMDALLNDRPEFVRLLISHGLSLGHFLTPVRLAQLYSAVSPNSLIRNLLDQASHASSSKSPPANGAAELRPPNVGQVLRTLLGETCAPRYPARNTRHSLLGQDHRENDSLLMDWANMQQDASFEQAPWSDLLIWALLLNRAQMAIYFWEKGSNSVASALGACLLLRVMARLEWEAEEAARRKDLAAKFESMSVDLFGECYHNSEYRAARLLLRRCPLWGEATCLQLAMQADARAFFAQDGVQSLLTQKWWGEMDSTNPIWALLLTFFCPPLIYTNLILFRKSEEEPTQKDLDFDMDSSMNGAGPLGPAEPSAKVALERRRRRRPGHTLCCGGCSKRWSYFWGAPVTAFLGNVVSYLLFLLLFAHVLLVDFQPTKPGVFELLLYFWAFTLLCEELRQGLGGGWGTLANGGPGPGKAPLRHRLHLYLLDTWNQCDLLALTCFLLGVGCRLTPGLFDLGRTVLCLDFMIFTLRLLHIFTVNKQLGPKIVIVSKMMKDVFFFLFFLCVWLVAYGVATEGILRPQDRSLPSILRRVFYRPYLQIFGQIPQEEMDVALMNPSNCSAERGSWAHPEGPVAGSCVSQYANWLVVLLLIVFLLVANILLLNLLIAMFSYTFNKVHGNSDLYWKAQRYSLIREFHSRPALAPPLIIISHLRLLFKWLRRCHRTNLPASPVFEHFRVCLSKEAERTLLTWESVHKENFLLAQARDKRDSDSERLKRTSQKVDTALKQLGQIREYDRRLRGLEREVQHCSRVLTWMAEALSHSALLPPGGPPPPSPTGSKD
- ASSAY_PROTOCOL: Patch clamp of NCCa-ATP channel in freshly isolated native reactive astrocytes
- Type: cell-based
- STUDY_CONDITIONS: Reactive Astrocytes; read-out: [ATP]1 EC50
PROPERTY: EC50 (nM)
One number for each entry, in nM.

Give its EC50 value. Item: Nc1ncnc2c1ncn2[C@@H]1O[C@H](COP(=O)(O)OP(=O)(O)OP(=O)(O)O)[C@@H](O)[C@H]1O [ATP]
790

###

- TARGET_UNDER_TEST: NCCa-ATP channel (Rattus norvegicus, UniProt Q09429+Q9ESQ5)
- Construct: endogenous in cells; host or cells: freshly isolated native reactive astrocytes from the hypoxic gliotic capsule
- ASSAY_PROTOCOL: Patch clamp of NCCa-ATP channel in freshly isolated native reactive astrocytes
- Format: cell-based
- STUDY_CONDITIONS: Membrane Preparation derived from freshly isolated native reactive astrocytes; read-out: [ATP]1 EC50
PROPERTY: EC50 (nM)
One number for each entry, in nM.

Given Nc1ncnc2c1ncn2[C@@H]1O[C@H](COP(=O)(O)OP(=O)(O)OP(=O)(O)O)[C@@H](O)[C@H]1O [ATP] , state its recorded EC50.
790
